Target: UniProtKB Q9NR97
Sequence (Q9NR97 27-1041): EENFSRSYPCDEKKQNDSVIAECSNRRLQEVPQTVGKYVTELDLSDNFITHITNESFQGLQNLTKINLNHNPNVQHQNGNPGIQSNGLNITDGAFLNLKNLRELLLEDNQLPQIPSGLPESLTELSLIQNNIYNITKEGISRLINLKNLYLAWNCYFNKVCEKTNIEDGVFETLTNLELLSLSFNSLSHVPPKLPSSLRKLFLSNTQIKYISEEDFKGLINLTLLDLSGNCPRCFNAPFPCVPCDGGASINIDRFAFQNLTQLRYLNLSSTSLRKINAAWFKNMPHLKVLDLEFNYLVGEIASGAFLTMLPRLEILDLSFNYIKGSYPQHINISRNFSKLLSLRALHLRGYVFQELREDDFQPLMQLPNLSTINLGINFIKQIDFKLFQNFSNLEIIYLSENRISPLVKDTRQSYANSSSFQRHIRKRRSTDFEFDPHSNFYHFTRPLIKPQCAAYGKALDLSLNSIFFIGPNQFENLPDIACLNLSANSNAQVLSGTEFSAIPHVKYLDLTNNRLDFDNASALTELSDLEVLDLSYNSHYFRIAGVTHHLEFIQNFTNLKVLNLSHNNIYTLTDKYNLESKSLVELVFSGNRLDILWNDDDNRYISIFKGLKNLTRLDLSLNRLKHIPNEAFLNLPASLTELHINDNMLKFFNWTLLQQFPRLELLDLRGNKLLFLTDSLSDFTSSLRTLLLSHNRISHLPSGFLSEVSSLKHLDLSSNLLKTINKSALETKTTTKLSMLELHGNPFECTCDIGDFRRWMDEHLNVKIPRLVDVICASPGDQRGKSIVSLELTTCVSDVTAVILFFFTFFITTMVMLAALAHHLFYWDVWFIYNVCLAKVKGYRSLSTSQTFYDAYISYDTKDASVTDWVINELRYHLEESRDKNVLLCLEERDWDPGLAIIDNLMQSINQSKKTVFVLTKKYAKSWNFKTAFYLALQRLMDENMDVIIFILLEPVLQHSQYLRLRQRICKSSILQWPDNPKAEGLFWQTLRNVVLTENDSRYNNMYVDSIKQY
Assay: HEK293-Blue-hTLR-8 cells assay (SEAP reporter, R848 stimulation)
Conditions: HEK293-Blue-hTLR8 cells, R848, 20 hrs; read-out: HEK/hTLR8 IC50
Readout type: IC50 (nM)

Below: 5 molecules and their reported IC50.
Molecule	Assay target	Assay result
C[C@@H]1CN(c2ccc(C#N)c3ncccc23)C[C@H](CN2CCN(c3cnc4c(c3)CNCC4)C(C)(C)C2)O1 [Example 56]	UniProtKB Q9NR97	12
C[C@@H]1Cc2cc(N3CCN(C[C@H]4CN(c5ccc(C#N)c6ncccc56)C[C@@H](C)O4)CC3)ncc2CN1 (single isomer, unassigned) [Example 70]	UniProtKB Q9NR97	4
C[C@@H]1CN(c2ccc(C#N)c3ncccc23)C[C@H](CN2CCN(c3cc4c(cn3)[C@H](C)NCC4)CC2)O1 (single isomer, unassigned) [Example 72]	UniProtKB Q9NR97	5
[2H]c1ccc2c(N3C[C@H](CN4CCN(c5ccc6c(n5)CN[C@H]6C)CC4)O[C@H](C)C3)ccc(C#N)c2n1 (single isomer, unassigned) [Example 99]	UniProtKB Q9NR97	5
C[C@@H]1CN(c2ccc(C#N)c3nccnc23)C[C@H](CN2CCN(c3cc4c(cn3)[C@@H](C)NCC4)CC2)O1 (single isomer, unassigned) [Example 86]	UniProtKB Q9NR97	2

(a) [2H]c1nc2c(C#N)ccc(N3C[C@H](CN4CCN(c5ccc6c(n5)CN[C@@H]6C)CC4)O[C@H](C)C3)c2nc1[2H] (single isomer, unassigned) [Example 97]
(b) C[C@@H]1CN(c2ccc(C#N)c3ncccc23)C[C@H](CN2CCN(c3ccc4c(c3)CN(CCO)C4)CC2)O1 [Example 16]
(c) [2H]c1nc2c(C#N)ccc(N3C[C@H](CN4CCN(c5cc6c(cn5)[C@H](C)NCC6)CC4)O[C@H](C)C3)c2nc1[2H] (single isomer, unassigned) [Example 94]
(d) C[C@@H]1CN(c2ccc(C#N)c3ncccc23)C[C@H](CN2CCN(c3ccc4c(c3)CNC4)C(CO)C2)O1 (stereo partly drawn) [Example 13]
Input: Ordering: ascending IC50. Form entry: ranked labels (order as requested).
Output: c, a, b, d

(P) C[C@@H]1CN(c2ccc(C#N)c3ncccc23)C[C@H](CN2CCN(c3ccc4c(n3)CN[C@H]4C)CC2)O1 (single isomer, unassigned) [Example 63]
(Q) C[C@@H]1CN(c2ccc(C#N)c3ncccc23)C[C@H](CN2CCN(c3cnc4c(c3)CNCC4)CC2)O1 [Example 21]
Input: IC50 comparison. Which is larger, P or Q ? Output the label that corresponds to your choice.
Output: Q
